All figures here come from ChEMBL document CHEMBL1140818.

Test: Selectivity index, ratio of EC50 for MT4 cells to EC50 for HIV1
Type: cell-based
Settings: human, MT4 cells; read-out: Selectivity index
The label 1.0 is reserved for selectivity ratio strictly under 6; 0.0 covers values equal to or above it.

Is selectivity ratio of Clc1cccc(CSc2nnc(-c3cccs3)n2Cc2ccccc2)c1Cl strictly below 6?
0.0

Consider c1ccc(CSc2nnc(-c3cccs3)n2Cc2ccccc2)cc1 . Does its selectivity ratio lie strictly below 6?
0.0

Take the compound Clc1ccc(CSc2nnc(-c3cccs3)n2Cc2ccccc2)cc1Cl and say whether its selectivity ratio is less than 6.
1.0

Does the reported selectivity ratio of the following compound sit strictly below 6? Clc1ccc(Cl)c(CSc2nnc(-c3cccs3)n2Cc2ccccc2)c1
0.0

Is 6 strictly greater than the compound's reported selectivity ratio? compound: Clc1ccc(Cl)c(CSc2nnc(-c3ccsc3)n2Cc2ccccc2)c1
1.0

Find out if reported selectivity ratio for O=C1Nc2ccc(Cl)cc2C(C#CC2CC2)(C(F)(F)F)O1 (single isomer, unassigned) is less than 6
0.0

Consider the compound Clc1ccc(CSc2nnc(-c3cccs3)n2Cc2ccccc2)c(Cl)c1 . Is its selectivity ratio strictly less than 6?
0.0

Field: below-cutoff. Rule: recorded selectivity ratio strictly less than 6. Subject: Clc1ccc(CSc2nnc(-c3ccsc3)n2Cc2ccccc2)c(Cl)c1
1.0

A record lists c1ccc(Cn2c(SCc3ccc4ccccc4c3)nnc2-c2ccsc2)cc1 . Is its selectivity ratio below 6?
0.0

Confirm or reject: selectivity ratio of Clc1cccc(CSc2nnc(-c3ccsc3)n2Cc2ccccc2)c1Cl lies strictly below 6
1.0

API: query returns whether the compound falls strictly under 6 in selectivity ratio. Query: Clc1ccc(CSc2nnc(-c3cccs3)n2Cc2ccccc2)cc1
1.0
